Compiled from multiple publications: pIC50 readings for Beta-secretase 1 (Homo sapiens).
// pIC50 is dimensionless: -log10 of concentration (M)

For Beta-secretase 1 (Homo sapiens), give the measured pIC50 of the entry "NC1=N[C@]2(CCO1)c1cc(-c3cccnc3F)ccc1Oc1c(F)cc(C3=CCOCC3)cc12"
5.51

Give reported pIC50 for "NC1=N[C@@]2(COC1)c1cc(-c3cccnc3F)ccc1Oc1cnc(C3CCOCC3)cc12" (Beta-secretase 1 (Homo sapiens))
9.15

Name the value of pIC50 reported for "NC1=N[C@@]2(COC1)c1cc(-c3cncc(F)c3)ccc1Oc1cnc(-c3ccc(F)c(F)c3)cc12" when tested on Beta-secretase 1 (Homo sapiens).
9.40

For Beta-secretase 1 (Homo sapiens), give the measured pIC50 of the entry "Cc1cnc([C@H]2C[C@H]3CSC(N)=N[C@@]3(c3ccc(F)cc3F)CO2)o1"
6.33

Under Beta-secretase 1 (Homo sapiens), report pIC50 for "CCOc1cc2c(cn1)Oc1ccc(-c3cccnc3F)cc1[C@@]21COCC(N)=N1"
8.80

GET pIC50 where system = Beta-secretase 1 (Homo sapiens) and item = "Cc1cc([C@H]2C[C@H]3CSC(N)=N[C@@]3(c3ccc(F)cc3F)CO2)ccn1"
6.66

Name the value of pIC50 reported for CCCOc1cccc(C2(c3ccc(OC)c(C)c3)N=C(N)N3CC(C)(C)CN=C32)c1 (stereo not shown) when tested on Beta-secretase 1 (Homo sapiens).
5.96

Find pIC50 for "NC1=N[C@]2(CCO1)c1cc(-c3cccnc3F)ccc1Oc1c(F)cc(-c3ccncc3)cc12" on Beta-secretase 1 (Homo sapiens) and write it down.
6.26

Provide the reported pIC50 (system: Beta-secretase 1 (Homo sapiens)) for "NC1=N[C@@]2(COC1)c1cc(-c3cccnc3F)ccc1Oc1cnc(N3CCC(F)(F)C3)cc12"
9.40

# assay system Beta-secretase 1 (Homo sapiens): give pIC50 of "NC1=N[C@]2(CCOC1)c1cc(-c3cccnc3F)ccc1Oc1cnc(-c3ccnc(F)c3)cc12"
6.43

Send back Beta-secretase 1 (Homo sapiens) pIC50 of "NC1=N[C@@]2(c3ccc(F)cc3F)CO[C@@H](c3ccc(Cl)cc3)C[C@H]2CS1" only.
7.82

Give the observed pIC50 of NC1=NC2(c3cc(-c4cccnc4F)ccc3Oc3c2cc(N2CCOCC2)nc3F)c2ccccc21 (racemic) for Beta-secretase 1 (Homo sapiens).
8.38
